# Test system: T1, Interleukin-35 (human, UniProt P29459 23-219; Q14213 21-229)
# T1 construct: the chain used for the SCOP family assignment; also called IL-35; source: bought: PeproTech (source HEK293)
# T1 sequence (looked up) 1: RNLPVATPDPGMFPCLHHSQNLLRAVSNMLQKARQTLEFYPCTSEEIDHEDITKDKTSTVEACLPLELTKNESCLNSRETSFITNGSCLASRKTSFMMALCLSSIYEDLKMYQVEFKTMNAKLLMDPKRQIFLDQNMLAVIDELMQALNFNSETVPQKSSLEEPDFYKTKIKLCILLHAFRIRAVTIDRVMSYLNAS
# T1 sequence (looked up) 2: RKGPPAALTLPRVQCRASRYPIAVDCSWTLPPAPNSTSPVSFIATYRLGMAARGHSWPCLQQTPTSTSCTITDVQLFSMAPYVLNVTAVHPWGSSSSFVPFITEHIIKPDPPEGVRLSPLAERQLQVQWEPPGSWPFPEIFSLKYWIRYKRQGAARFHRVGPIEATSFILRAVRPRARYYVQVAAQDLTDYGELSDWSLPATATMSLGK
# Run description: SPR; cytokine immobilised on ProteOn GLH sensor chip by amine coupling (9,000-14,000 RU); S100P (wild type or mutant) as analyte, 62 nM-16 µM; 25 °C; 10 mM HEPES, 150 mM NaCl, 1 mM CaCl2, 0.05% TWEEN 20, pH 7.4; heterogeneous ligand model (two ligand populations), one-site model for IL-13; values averaged over analyte concentrations (n = 3-5)
# Condition summary: both partners purified
Catalogue of Kd readings, one per entry.
Reported property: Kd

INSERT INTO measurements (binder, result) VALUES
  ('Human S100P mutant Δ42–47 (lacks PGFLQS sequence in the ''hinge'') (natural protein, S100P protein, human, recombinant, with residues 42-47 (PGFLQS) deleted; source: E. coli, prepared as previously described [28]) MTELETAMGMIIDVFSRYSGSEGSTQTLTKGELKVLMEKELGKDKDAVDKLLKDLDANGDAQVDFSEFIVFVAAITSACHKYFEKAGLK', '> 10 µM'),
  ('Human S100P mutant F89A (natural protein, S100P protein, human, recombinant, with F89A; source: E. coli, prepared as previously described [28]) MTELETAMGMIIDVFSRYSGSEGSTQTLTKGELKVLMEKELPGFLQSGKDKDAVDKLLKDLDANGDAQVDFSEFIVFVAAITSACHKYAEKAGLK', '> 100 µM');
